# Minimal Inhibitory Concentration (MIC) SA 489 values compiled below
# System: Staphylococcus aureus 489
# assay_overview: MIC, standard broth micro-dilution assay, SA 489
# Assay type: cell-based
# Parameters: unit not given here
The answer should be a number; do not append a unit.

IN: I'd like to know its Minimal Inhibitory Concentration (MIC) SA 489. The compound in question is C[C@@H]1O[C@@H](O[C@@H]2c3ccc(c(Cl)c3)Oc3cc4cc(c3O[C@@H]3O[C@H](CO)[C@@H](O)[C@H](O)[C@H]3O[C@H]3C[C@](C)(NCc5ccc(-c6ccccc6)cc5)[C@@H](O)[C@H](C)O3)Oc3ccc(cc3Cl)[C@@H](O)[C@@H](NCc3ccc(-c5cc(C(F)(F)F)cc(C(F)(F)F)c5)cc3)C(=O)N[C@@H](CC(N)=O)C(=O)N[C@H]4C(=O)N[C@H]3C(=O)N[C@@H]2C(=O)N[C@H](C(=O)O)c2cc(O)cc(O)c2-c2cc3ccc2O)C[C@](C)(N)[C@H]1O
OUT: 4

Continue with the next compound.
IN: Name the recorded Minimal Inhibitory Concentration (MIC) SA 489 for C[C@@H]1O[C@@H](O[C@@H]2c3ccc(c(Cl)c3)Oc3cc4cc(c3O[C@@H]3O[C@H](CO)[C@@H](O)[C@H](O)[C@H]3O[C@H]3C[C@](C)(NCc5ccc(O)cc5)[C@@H](O)[C@H](C)O3)Oc3ccc(cc3Cl)[C@@H](O)[C@@H](NCc3ccc(O)cc3)C(=O)N[C@@H](CC(N)=O)C(=O)N[C@H]4C(=O)N[C@H]3C(=O)N[C@@H]2C(=O)N[C@H](C(=O)O)c2cc(O)cc(O)c2-c2cc3ccc2O)C[C@](C)(N)[C@H]1O .
OUT: 16

###

# Tested on: Enterococcus faecium and faecalis (RESISTANT)
# Type: cell-based
# experimental_conditions: geometric mean of 4-6 isolates
outcome_measure: Minimal Inhibitory Concentration (MIC) RESISTANT
// no unit, no text: just the number

IN: Would you mind telling me what Minimal Inhibitory Concentration (MIC) RESISTANT value was observed for CCCCCCN[C@H]1C(=O)N[C@@H](CC(N)=O)C(=O)N[C@H]2C(=O)N[C@H]3C(=O)N[C@H](C(=O)N[C@H](C(=O)O)c4cc(O)cc(O)c4-c4cc3ccc4O)[C@H](O[C@H]3C[C@](C)(N)[C@@H](O)[C@H](C)O3)c3ccc(c(Cl)c3)Oc3cc2cc(c3O[C@@H]2O[C@H](CO)[C@@H](O)[C@H](O)[C@H]2O[C@H]2C[C@](C)(NCc3ccc(-c4ccccc4)cc3)[C@@H](O)[C@H](C)O2)Oc2ccc(cc2Cl)[C@H]1O [Example 11] ?
OUT: 27

###

# Test system: Staphylococcus aureus 489
# assay_overview: MIC, standard broth micro-dilution assay, SA 489
# Format: cell-based
# Parameters: unit not given here
# key: entry, value: Minimal Inhibitory Concentration (MIC) SA 489
Respond numerically, and do not add a unit to the figure.

IN: Look at this compound and give its reported Minimal Inhibitory Concentration (MIC) SA 489. C[C@@H]1O[C@@H](O[C@H]2[C@H](Oc3c4cc5cc3Oc3ccc(cc3Cl)[C@@H](O[C@H]3C[C@](C)(N)[C@@H](O)[C@H](C)O3)[C@@H]3NC(=O)[C@H](NC(=O)[C@@H]5NC(=O)[C@H](CC(N)=O)NC(=O)[C@H](NCc5ccc(-c6cc(C(F)(F)F)cc(C(F)(F)F)c6)cc5)[C@H](O)c5ccc(c(Cl)c5)O4)c4ccc(O)c(c4)-c4c(O)cc(O)cc4[C@@H](C(=O)O)NC3=O)O[C@H](CO)[C@@H](O)[C@@H]2O)C[C@](C)(N)[C@H]1O
OUT: 1

IN: Endpoint output: Minimal Inhibitory Concentration (MIC) SA 489 of CSc1ccc(CN[C@H]2C(=O)N[C@@H](CC(N)=O)C(=O)N[C@H]3C(=O)N[C@H]4C(=O)N[C@H](C(=O)N[C@H](C(=O)O)c5cc(O)cc(O)c5-c5cc4ccc5O)[C@H](O[C@H]4C[C@](C)(N)[C@@H](O)[C@H](C)O4)c4ccc(c(Cl)c4)Oc4cc3cc(c4O[C@@H]3O[C@H](CO)[C@@H](O)[C@H](O)[C@H]3O[C@H]3C[C@](C)(NCc4ccc(SC)cc4)[C@@H](O)[C@H](C)O3)Oc3ccc(cc3Cl)[C@H]2O)cc1 . Value?
OUT: 4

IN: Any idea what its Minimal Inhibitory Concentration (MIC) SA 489 is? The compound is CCCCCCN[C@H]1C(=O)N[C@@H](CC(N)=O)C(=O)N[C@H]2C(=O)N[C@H]3C(=O)N[C@H](C(=O)N[C@H](C(=O)O)c4cc(O)cc(O)c4-c4cc3ccc4O)[C@H](O[C@H]3C[C@](C)(N)[C@@H](O)[C@H](C)O3)c3ccc(c(Cl)c3)Oc3cc2cc(c3O[C@@H]2O[C@H](CO)[C@@H](O)[C@H](O)[C@H]2O[C@H]2C[C@](C)(NCc3ccc(-c4ccccc4)cc3)[C@@H](O)[C@H](C)O2)Oc2ccc(cc2Cl)[C@H]1O
OUT: 1

IN: Item under review: CCCCCCN[C@H]1C(=O)N[C@@H](CC(N)=O)C(=O)N[C@H]2C(=O)N[C@H]3C(=O)N[C@H](C(=O)N[C@H](C(=O)O)c4cc(O)cc(O)c4-c4cc3ccc4O)[C@H](O[C@H]3C[C@](C)(N)[C@@H](O)[C@H](C)O3)c3ccc(c(Cl)c3)Oc3cc2cc(c3O[C@@H]2O[C@H](CO)[C@@H](O)[C@H](O)[C@H]2O[C@H]2C[C@](C)(NCCCCCC)[C@@H](O)[C@H](C)O2)Oc2ccc(cc2Cl)[C@H]1O [Example 7, N^1,N^DISACC -DIHEXYLDESLEUCYL-A82846B] . Reported Minimal Inhibitory Concentration (MIC) SA 489?
OUT: 8

IN: // query Minimal Inhibitory Concentration (MIC) SA 489 value for entry C[C@@H]1O[C@@H](O[C@@H]2c3ccc(c(Cl)c3)Oc3cc4cc(c3O[C@@H]3O[C@H](CO)[C@@H](O)[C@H](O)[C@H]3O[C@H]3C[C@](C)(NCc5ccc(-c6ccccc6)cc5)[C@@H](O)[C@H](C)O3)Oc3ccc(cc3Cl)[C@@H](O)[C@@H](NCc3ccc(O)cc3)C(=O)N[C@@H](CC(N)=O)C(=O)N[C@H]4C(=O)N[C@H]3C(=O)N[C@@H]2C(=O)N[C@H](C(=O)O)c2cc(O)cc(O)c2-c2cc3ccc2O)C[C@](C)(N)[C@H]1O
OUT: 1

IN: Looking for the measured Minimal Inhibitory Concentration (MIC) SA 489 of C[C@@H]1O[C@@H](O[C@@H]2c3ccc(c(Cl)c3)Oc3cc4cc(c3O[C@@H]3O[C@H](CO)[C@@H](O)[C@H](O)[C@H]3O[C@H]3C[C@](C)(NCCCCCCc5ccccc5)[C@@H](O)[C@H](C)O3)Oc3ccc(cc3Cl)[C@@H](O)[C@@H](NCCCCCCc3ccccc3)C(=O)N[C@@H](CC(N)=O)C(=O)N[C@H]4C(=O)N[C@H]3C(=O)N[C@@H]2C(=O)N[C@H](C(=O)O)c2cc(O)cc(O)c2-c2cc3ccc2O)C[C@](C)(N)[C@H]1O , can you help?
OUT: 2

IN: Bench note: what Minimal Inhibitory Concentration (MIC) SA 489 did CSc1ccc(CN[C@H]2C(=O)N[C@@H](CC(N)=O)C(=O)N[C@H]3C(=O)N[C@H]4C(=O)N[C@H](C(=O)N[C@H](C(=O)O)c5cc(O)cc(O)c5-c5cc4ccc5O)[C@H](O[C@H]4C[C@](C)(N)[C@@H](O)[C@H](C)O4)c4ccc(c(Cl)c4)Oc4cc3cc(c4O[C@@H]3O[C@H](CO)[C@@H](O)[C@H](O)[C@H]3O[C@H]3C[C@](C)(N)[C@@H](O)[C@H](C)O3)Oc3ccc(cc3Cl)[C@H]2O)cc1 show?
OUT: 16

IN: Param item = C[C@@H]1O[C@@H](O[C@H]2[C@H](Oc3c4cc5cc3Oc3ccc(cc3Cl)[C@@H](O[C@H]3C[C@](C)(N)[C@@H](O)[C@H](C)O3)[C@@H]3NC(=O)[C@H](NC(=O)[C@@H]5NC(=O)[C@H](CC(N)=O)NC(=O)[C@H](NCCCCCCCCCCc5ccccc5)[C@H](O)c5ccc(c(Cl)c5)O4)c4ccc(O)c(c4)-c4c(O)cc(O)cc4[C@@H](C(=O)O)NC3=O)O[C@H](CO)[C@@H](O)[C@@H]2O)C[C@](C)(N)[C@H]1O ; retrieve measured Minimal Inhibitory Concentration (MIC) SA 489.
OUT: 2

Note: attention shifts to another entry.
IN: Please give the measured Minimal Inhibitory Concentration (MIC) SA 489 for this compound: C[C@@H]1O[C@@H](O[C@@H]2c3ccc(c(Cl)c3)Oc3cc4cc(c3O[C@@H]3O[C@H](CO)[C@@H](O)[C@H](O)[C@H]3O[C@H]3C[C@](C)(NCc5ccc(-c6ccccc6)cc5)[C@@H](O)[C@H](C)O3)Oc3ccc(cc3Cl)[C@@H](O)[C@@H](NCc3ccccc3)C(=O)N[C@@H](CC(N)=O)C(=O)N[C@H]4C(=O)N[C@H]3C(=O)N[C@@H]2C(=O)N[C@H](C(=O)O)c2cc(O)cc(O)c2-c2cc3ccc2O)C[C@](C)(N)[C@H]1O
OUT: 2

Provenance of the data: patent US5977063A
